Target: Vasopressin V1 receptor (Rattus norvegicus, UniProt P48974+P30560)
Assay: pA2 value was determined for Vasopressin V1 receptor antagonistic activity in vivo in anesthetized rats
Type: functional, organism-based
reportedProperty: pA2

{"substanceSmiles": "CCOc1ccc(C[C@@H](NC(=O)CC23CC4CC(CC(C4)C2)C3)C(=O)N[C@@H](Cc2ccccc2)C(=O)N[C@H](C(=O)N[C@@H](CC(N)=O)C(=O)N[C@@H](CCCCN)C(=O)N2CCC[C@H]2C(=O)N[C@@H](CCCN=C(N)N)C(=O)N[C@@H](CCCN=C(N)N)C(N)=O)C(C)C)cc1", "numericResult": 8.14}
{"substanceSmiles": "CCOc1ccc(C[C@@H](NC(=O)CC23CC4CC(CC(C4)C2)C3)C(=O)N[C@@H](Cc2ccccc2)C(=O)N[C@H](C(=O)N[C@@H](CC(N)=O)C(=O)N[C@@H](CCCN=C(N)N)C(=O)N2CCC[C@H]2C(=O)N[C@@H](CCCN=C(N)N)C(=O)N[C@@H](CCCN=C(N)N)C(N)=O)C(C)C)cc1", "numericResult": 8.13}
{"substanceSmiles": "CCOc1ccc(C[C@@H](NC(=O)CC23CC4CC(CC(C4)C2)C3)C(=O)N[C@@H](Cc2ccccc2)C(=O)N[C@H](C(=O)N[C@@H](CC(N)=O)C(=O)N[C@@H](CCCN=C(N)N)C(=O)N(C)[C@@H](C)C(=O)N[C@@H](CCCN=C(N)N)C(N)=O)C(C)C)cc1", "numericResult": 8.28}
{"substanceSmiles": "CCOc1ccc(C[C@@H](NC(=O)CC23CC4CC(CC(C4)C2)C3)C(=O)N[C@@H](Cc2ccccc2)C(=O)N[C@H](C(=O)N[C@@H](CC(N)=O)C(=O)N[C@@H](CCCN=C(N)N)C(=O)N2CCC[C@H]2C(=O)N[C@@H](CCCN=C(N)N)C(N)=O)C(C)C)cc1", "numericResult": 8.01}
{"substanceSmiles": "CCOc1ccc(C[C@@H](NC(=O)CC(C)(C)C)C(=O)N[C@@H](Cc2ccccc2)C(=O)N[C@H](C(=O)N[C@@H](CC(N)=O)C(=O)N[C@@H](CCCCN)C(=O)N2CCC[C@H]2C(=O)N[C@@H](CCCN=C(N)N)C(N)=O)C(C)C)cc1", "numericResult": 8.63}
{"substanceSmiles": "CCOc1ccc(C[C@@H](NC(=O)Cc2ccccc2)C(=O)N[C@@H](Cc2ccccc2)C(=O)N[C@H](C(=O)N[C@@H](CC(N)=O)C(=O)NCCCC(=O)N2CCC[C@H]2C(=O)N[C@@H](CCCN=C(N)N)C(=O)N[C@@H](CCCN=C(N)N)C(N)=O)C(C)C)cc1", "numericResult": 8.42}
{"substanceSmiles": "CC(C)[C@H](NC(=O)[C@H](Cc1ccccc1)NC(=O)[C@@H](Cc1ccc(O)cc1)NC(=O)CC12CC3CC(CC(C3)C1)C2)C(=O)N[C@@H](CC(N)=O)C(=O)N[C@@H](CCCN=C(N)N)C(=O)N1CCC[C@H]1C(=O)N[C@@H](CCCN=C(N)N)C(=O)N[C@@H](CCCN=C(N)N)C(N)=O", "numericResult": 8.22}
{"substanceSmiles": "CCOc1ccc(C[C@H]2NC(=O)CC3(CCCCC3)SSC[C@@H](C(=O)N3CCC[C@H]3C(=O)N[C@@H](CCCN=C(N)N)C(N)=O)NC(=O)[C@H](CC(N)=O)NC(=O)[C@H](C(C)C)NC(=O)[C@H](Cc3ccccc3)NC2=O)cc1", "numericResult": 8.17}
{"substanceSmiles": "CCOc1ccc(C[C@@H](NC(=O)CC23CC4CC(CC(C4)C2)C3)C(=O)N[C@@H](Cc2ccccc2)C(=O)N[C@H](C(=O)N[C@@H](CC(N)=O)C(=O)N[C@@H](CCCCN)C(=O)N2CCC[C@H]2C(=O)N[C@@H](CCCN=C(N)N)C(N)=O)C(C)C)cc1", "numericResult": 8.02}
{"substanceSmiles": "CCOc1ccc(C[C@@H](NC(=O)CC23C[C@H]4C[C@@H](C2)C[C@@H](C3)C4)C(=O)N[C@@H](Cc2ccccc2)C(=O)N[C@H](C(=O)N[C@@H](CC(N)=O)C(=O)N[C@@H](CC)C(=O)N2CCC[C@H]2C(=O)N[C@@H](CCCN=C(N)N)C(N)=O)C(C)C)cc1", "numericResult": 7.43}

* * *

Target: Vasopressin V2 receptor (Rattus norvegicus, UniProt Q00788)
Sequence (Q00788 whole entry): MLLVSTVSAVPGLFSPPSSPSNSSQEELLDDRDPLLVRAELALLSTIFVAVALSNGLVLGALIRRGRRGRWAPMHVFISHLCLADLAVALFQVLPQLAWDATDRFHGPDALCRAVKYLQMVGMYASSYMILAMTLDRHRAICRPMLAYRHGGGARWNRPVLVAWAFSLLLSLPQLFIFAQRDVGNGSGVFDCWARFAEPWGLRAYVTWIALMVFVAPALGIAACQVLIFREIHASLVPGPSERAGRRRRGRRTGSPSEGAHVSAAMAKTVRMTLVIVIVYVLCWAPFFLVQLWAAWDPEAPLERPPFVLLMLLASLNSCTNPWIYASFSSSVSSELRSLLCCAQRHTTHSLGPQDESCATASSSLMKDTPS
Experiment: Vasopressin V2 receptor antagonistic activity in vivo in anesthetized rats
Format: functional, organism-based
Details: read-out: pA2 (converted)
Entries and their Kb

{"substanceSmiles": "CCOc1ccc(C[C@@H](NC(=O)CC23CC4CC(CC(C4)C2)C3)C(=O)N[C@@H](Cc2ccccc2)C(=O)N[C@H](C(=O)N[C@@H](CC(N)=O)C(=O)N[C@@H](CCCCN)C(=O)N2CCC[C@H]2C(=O)N[C@@H](CCCN=C(N)N)C(N)=O)C(C)C)cc1", "Kb, nM": 15.5}
{"substanceSmiles": "CCOc1ccc(C[C@@H](NC(=O)CC23CC4CC(CC(C4)C2)C3)C(=O)N[C@@H](Cc2ccccc2)C(=O)N[C@H](C(=O)N[C@@H](CC(N)=O)C(=O)N[C@@H](CCCCN)C(=O)N2CCC[C@H]2C(=O)N[C@@H](CCCN=C(N)N)C(=O)N[C@@H](CCCN=C(N)N)C(N)=O)C(C)C)cc1", "Kb, nM": 20}
{"substanceSmiles": "CC(C)[C@H](NC(=O)[C@H](Cc1ccccc1)NC(=O)[C@@H](Cc1ccc(O)cc1)NC(=O)CC12CC3CC(CC(C3)C1)C2)C(=O)N[C@@H](CC(N)=O)C(=O)N[C@@H](CCCN=C(N)N)C(=O)N1CCC[C@H]1C(=O)N[C@@H](CCCN=C(N)N)C(=O)N[C@@H](CCCN=C(N)N)C(N)=O", "Kb, nM": 21.9}

* * *

Entries and their Kb
Target: Vasopressin V2 receptor (Rattus norvegicus, UniProt Q00788)
Assay: Vasopressin V2 receptor antagonistic activity in vivo in anesthetized rats
Type: functional, organism-based
Conditions: read-out: pA2 (converted)

{"substanceSmiles": "CCOc1ccc(C[C@@H](NC(=O)Cc2ccccc2)C(=O)N[C@@H](Cc2ccccc2)C(=O)N[C@H](C(=O)N[C@@H](CC(N)=O)C(=O)NCCCC(=O)N2CCC[C@H]2C(=O)N[C@@H](CCCN=C(N)N)C(=O)N[C@@H](CCCN=C(N)N)C(N)=O)C(C)C)cc1", "Kb, nM": 10.2}
{"substanceSmiles": "COc1ccc(C[C@@H](NC(=O)Cc2ccccc2)C(=O)N[C@@H](Cc2ccccc2)C(=O)N[C@H](C(=O)N[C@@H](CC(N)=O)C(=O)N[C@@H](CCCCN)C(=O)N2CCC[C@H]2C(=O)N[C@@H](CCCN=C(N)N)C(N)=O)C(C)C)cc1", "Kb, nM": 100}
{"substanceSmiles": "CCOc1ccc(C[C@@H](NC(=O)CC(C)(C)C)C(=O)N[C@@H](Cc2ccccc2)C(=O)N[C@@H](CCC(N)=O)C(=O)N[C@@H](CC(N)=O)C(=O)N[C@@H](CCCCN)C(=O)N2CCC[C@H]2C(=O)N[C@@H](CCCN=C(N)N)C(N)=O)cc1", "Kb, nM": 6310}
{"substanceSmiles": "CCOc1ccc(C[C@@H](NC(=O)Cc2ccccc2)C(=O)N[C@@H](Cc2ccccc2)C(=O)N[C@H](C(=O)N[C@@H](CC(N)=O)C(=O)N[C@@H](CCCCN)C(=O)N2CCC[C@H]2C(=O)N[C@@H](CCCN=C(N)N)C(N)=O)C(C)C)cc1", "Kb, nM": 43.7}

* * *

Target: Vasopressin V1 receptor (Rattus norvegicus) (UniProt P48974+P30560)
Sequence (P30560 whole entry, looked up): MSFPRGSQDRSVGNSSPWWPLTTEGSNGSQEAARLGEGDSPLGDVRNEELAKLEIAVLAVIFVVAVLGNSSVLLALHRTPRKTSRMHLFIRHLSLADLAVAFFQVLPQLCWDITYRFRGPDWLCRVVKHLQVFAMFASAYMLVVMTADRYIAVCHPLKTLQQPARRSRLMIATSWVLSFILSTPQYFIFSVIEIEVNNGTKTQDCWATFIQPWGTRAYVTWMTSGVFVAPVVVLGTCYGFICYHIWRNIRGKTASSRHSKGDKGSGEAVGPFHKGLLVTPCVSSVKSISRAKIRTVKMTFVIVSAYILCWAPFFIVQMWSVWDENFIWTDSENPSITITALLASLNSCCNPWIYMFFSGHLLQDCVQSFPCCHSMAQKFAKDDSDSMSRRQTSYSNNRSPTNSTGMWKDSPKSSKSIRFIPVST
Sequence (P48974 whole entry, looked up): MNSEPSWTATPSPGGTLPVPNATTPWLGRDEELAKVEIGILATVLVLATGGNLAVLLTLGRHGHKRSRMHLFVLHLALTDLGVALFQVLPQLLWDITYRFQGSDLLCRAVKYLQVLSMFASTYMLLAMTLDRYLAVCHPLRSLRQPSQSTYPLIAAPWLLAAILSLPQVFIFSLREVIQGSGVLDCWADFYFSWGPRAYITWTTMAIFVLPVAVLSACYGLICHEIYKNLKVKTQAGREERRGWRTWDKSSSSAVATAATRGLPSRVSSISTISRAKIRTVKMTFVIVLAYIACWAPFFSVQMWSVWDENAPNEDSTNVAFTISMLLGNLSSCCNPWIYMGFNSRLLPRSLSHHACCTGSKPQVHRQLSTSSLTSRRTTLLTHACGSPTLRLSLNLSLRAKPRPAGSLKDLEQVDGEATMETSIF
Experiment: Effective dose was determined for Vasopressin V1 receptor antagonistic activity in vivo in anesthetized rats
Type: functional, organism-based
// map Effective dose onto a label; ranges category 1: < 0.2 nM/kg; category 2: ≥ 0.2 nM/kg and < 0.5 nM/kg; category 3: ≥ 0.5 nM/kg

{"substanceSmiles": "CCOc1ccc(C[C@@H](NC(=O)CC(C)(C)C)C(=O)N[C@@H](Cc2ccccc2)C(=O)N[C@@H](CCC(N)=O)C(=O)N[C@@H](CC(N)=O)C(=O)N[C@@H](CCCCN)C(=O)N2CCC[C@@H]2C(=O)N[C@@H](CCCN=C(N)N)C(N)=O)cc1", "assignedCategory": "category 2"}
{"substanceSmiles": "CCOc1ccc(C[C@@H](NC(=O)CC23CC4CC(CC(C4)C2)C3)C(=O)N[C@@H](Cc2ccccc2)C(=O)N[C@H](C(=O)N[C@@H](CC(N)=O)C(=O)N[C@@H](CCCN)C(=O)N2CCC[C@@H]2C(=O)N[C@@H](CCCN=C(N)N)C(=O)N[C@@H](CCCN=C(N)N)C(N)=O)C(C)C)cc1", "assignedCategory": "category 3"}
{"substanceSmiles": "CCOc1ccc(C[C@@H](NC(=O)CC23CC4CC(CC(C4)C2)C3)C(=O)N[C@@H](Cc2ccccc2)C(=O)N[C@H](C(=O)N[C@@H](CC(N)=O)C(=O)N[C@@H](CCCN=C(N)N)C(=O)N(C)[C@@H](C)C(=O)N[C@@H](CCCN=C(N)N)C(N)=O)C(C)C)cc1", "assignedCategory": "category 2"}
{"substanceSmiles": "CCOc1ccc(C[C@@H](NC(=O)CC(C)(C)C)C(=O)N[C@@H](Cc2ccccc2)C(=O)N[C@H](C(=O)N[C@@H](CC(N)=O)C(=O)NCCCC(=O)N2CCC[C@@H]2C(=O)N[C@@H](CCCN=C(N)N)C(=O)N[C@@H](CCCN=C(N)N)C(N)=O)C(C)C)cc1", "assignedCategory": "category 3"}
{"substanceSmiles": "CCOc1ccc(C[C@@H](NC(=O)Cc2ccccc2)C(=O)N[C@@H](Cc2ccccc2)C(=O)N[C@H](C(=O)N[C@@H](CC(N)=O)C(=O)N[C@@H](CCCCN)C(=O)N2CCC[C@@H]2C(=O)N[C@@H](CCCN=C(N)N)C(N)=O)C(C)C)cc1", "assignedCategory": "category 1"}
{"substanceSmiles": "COc1ccc(C[C@@H](NC(=O)Cc2ccccc2)C(=O)N[C@@H](Cc2ccccc2)C(=O)N[C@H](C(=O)N[C@@H](CC(N)=O)C(=O)N[C@@H](CCCCN)C(=O)N2CCC[C@@H]2C(=O)N[C@@H](CCCN=C(N)N)C(N)=O)C(C)C)cc1", "assignedCategory": "category 1"}
{"substanceSmiles": "CCOc1ccc(C[C@@H](NC(=O)Cc2ccccc2)C(=O)N[C@@H](Cc2ccccc2)C(=O)N[C@H](C(=O)N[C@@H](CC(N)=O)C(=O)N[C@@H](CCCCN)C(=O)N2CCC[C@@H]2C(=O)N[C@@H](CCCN=C(N)N)C(=O)N[C@@H](CCCN=C(N)N)C(N)=O)C(C)C)cc1", "assignedCategory": "category 2"}
{"substanceSmiles": "CCOc1ccc(C[C@@H](NC(=O)Cc2ccccc2)C(=O)N[C@@H](Cc2ccccc2)C(=O)N[C@H](C(=O)N[C@@H](CC(N)=O)C(=O)N[C@@H](CCCN)C(=O)N2CCC[C@@H]2C(=O)N[C@@H](CCCN=C(N)N)C(=O)N[C@@H](CCCN=C(N)N)C(N)=O)C(C)C)cc1", "assignedCategory": "category 2"}
{"substanceSmiles": "CCOc1ccc(C[C@@H](NC(=O)CC23CC4CC(CC(C4)C2)C3)C(=O)N[C@@H](Cc2ccccc2)C(=O)N[C@H](C(=O)N[C@@H](CC(N)=O)C(=O)N[C@@H](CCCCN)C(=O)N2CCC[C@@H]2C(=O)N[C@@H](CCCN=C(N)N)C(N)=O)C(C)C)cc1", "assignedCategory": "category 3"}
{"substanceSmiles": "CCOc1ccc(C[C@H]2NC(=O)CC3(CCCCC3)SSC[C@H](C(=O)N3CCC[C@H]3C(=O)N[C@@H](CCCN=C(N)N)C(N)=O)NC(=O)[C@@H](CC(N)=O)NC(=O)[C@H](C(C)C)NC(=O)[C@@H](Cc3ccccc3)NC2=O)cc1", "assignedCategory": "category 2"}
{"substanceSmiles": "CCOc1ccc(C[C@@H](NC(=O)CC(C)(C)C)C(=O)N[C@@H](Cc2ccccc2)C(=O)N[C@H](C(=O)N[C@@H](CC(N)=O)C(=O)N[C@@H](CCCCN)C(=O)N2CCC[C@@H]2C(=O)N[C@@H](CCCN=C(N)N)C(N)=O)C(C)C)cc1", "assignedCategory": "category 1"}
{"substanceSmiles": "NCCCC[C@H](NC(=O)[C@H](CC(N)=O)NC(=O)[C@H](CCC(N)=O)NC(=O)[C@H](Cc1ccccc1)NC(=O)[C@@H](Cc1ccc(O)cc1)NC(=O)Cc1ccccc1)C(=O)N1CCC[C@@H]1C(=O)N[C@@H](CCCN=C(N)N)C(N)=O", "assignedCategory": "category 1"}
{"substanceSmiles": "CCOc1ccc(C[C@@H](NC(=O)Cc2ccccc2)C(=O)N[C@@H](Cc2ccccc2)C(=O)N[C@@H](CCC(N)=O)C(=O)N[C@@H](CC(N)=O)C(=O)N[C@@H](CCCCN)C(=O)N2CCC[C@@H]2C(=O)N[C@@H](CCCN=C(N)N)C(N)=O)cc1", "assignedCategory": "category 1"}
{"substanceSmiles": "CCOc1ccc(C[C@H]2NC(=O)CC3(CCCCC3)SSC[C@H](C(=O)N3CCC[C@H]3C(=O)N[C@@H](CCCN=C(N)N)C(=O)NCC(N)=O)NC(=O)[C@@H](CC(N)=O)NC(=O)[C@H](C(C)C)NC(=O)[C@@H](Cc3ccccc3)NC2=O)cc1", "assignedCategory": "category 2"}

Data provenance is ChEMBL document CHEMBL1125129.
